# Assay Name: p53 small molecule agonists, cell-based qHTS assay: qHTS cell viability counter screen (AID 1963581); also: nearly all actives have a fitted effect of over 45% in size
# Measurement Conditions: p53RE-bla HCT-116 viability, ATP luminescence, 16 h; series mostly up to 66 µM
Results filed as inconclusive are left out. Calls of active or inactive are those of the source. Calls follow the shape of the full dose curve.
Quantity: activity change, negative = cytotoxicity

# count of solved cases: 6
Cc1ccccc1CCO	inactive
CC(=O)[C@@]1(O)CC[C@H]2[C@@H]3C[C@H](C)C4=CC(=O)CC[C@]4(C)[C@H]3CC[C@@]21C	inactive
CN=C(N)NC(=O)Nc1c(C)cccc1C	inactive
O=C1OC(OC(=O)c2cccnc2Nc2cccc(C(F)(F)F)c2)c2ccccc21 (stereo not given)	inactive
COc1ccc(C(C)=O)cc1	inactive
CC(C)CCOC(=O)CC(C)C	inactive

Query string: Which activity change, negative = cytotoxicity reading was recorded for the compound C=C(C)C(=O)OCCOCC ?
Result string: inactive

Query string: Which activity change, negative = cytotoxicity reading was recorded for the compound CCc1cccc(CC)c1N(COC)C(=O)CS(=O)(=O)O ?
Result string: inactive

Query string: Which activity change, negative = cytotoxicity reading was recorded for the compound CC(=O)NO ?
Result string: inactive

Query string: Which activity change, negative = cytotoxicity reading was recorded for the compound COc1ccc(OC)c(NC(=O)CC(C)=O)c1 ?
Result string: inactive

Query string: Which activity change, negative = cytotoxicity reading was recorded for the compound COc1ccc([C@@H]2Sc3ccccc3N(CCN(C)C)C(=O)[C@@H]2OC(C)=O)cc1 ?
Result string: inactive

Query string: Which activity change, negative = cytotoxicity reading was recorded for the compound SC1CCCCC1 ?
Result string: inactive

Query string: Which activity change, negative = cytotoxicity reading was recorded for the compound CCOC(=O)C1CC(=O)C(=C(O)C2CC2)C(=O)C1 (stereo not given) ?
Result string: inactive

Query string: Which activity change, negative = cytotoxicity reading was recorded for the compound CC(C)Cc1ccc(C(C)C(=O)OCc2ccccn2)cc1 (stereo not given) ?
Result string: inactive

Query string: Which activity change, negative = cytotoxicity reading was recorded for the compound O=C(O)c1cccc(O)c1 ?
Result string: inactive
